system: CIB1 and αIIb interaction (GST-CIB1 : F-αIIb peptide) (Homo sapiens)
Construct: made in house; host or cells: BL-21 plus RIL cells (E. coli)
experiment-description: FP assay, 384-well format (screen)
Type: binding
condition-set: F-αIIb peptide; read-out: 384-well SCREEN IC50
property-name: IC50

• COC(=O)c1ccc2c(c1)S(=O)(=O)N=C2Sc1cc(C)ccc1C [NCGC00238687-01] = 11.2 µM
• O=c1[nH]sc2cc(Cl)ccc12 [NCGC00262908-01, ticlatone, reference compound] = 0.562 µM
• O=C(O)C(F)(F)F.OCc1ccc(-c2ccc3ncnc(NCc4nccs4)c3c2)o1 [NCGC00238383-01] = 25.1 µM

Now take the following compound into account.
Query: Which measured IC50 value corresponds to Cc1ccc(C)n1-c1cccc(C(=O)O)c1.O=C(O)C(F)(F)F [NCGC00060597-02] ?
Result: 17.7 µM

====

system: GST-CIB1 : F-scrambled peptide (Homo sapiens, UniProt Q99828)
Construct: made in house; host or cells: BL-21 plus RIL cells (E. coli)
experiment-description: FP scrambled-peptide counter screen, 1536-well format
Format: binding
condition-set: counterscreen, qHTS curve class; negative sign = inhibitory curve
What Curve Class (counterscreen) was measured for each of the following?

- CC(C)c1ccccc1Cc1cc(C(=O)Nc2ccc(S(=O)(=O)c3ccccc3C(C)(C)C)cc2)c(O)c(O)c1O [NCGC00263208-01]: -1.2

Here are 3 compounds. What values of Curve Class (counterscreen) were reported for them?
1. Oc1ccc2c(-c3c(-c4ccccn4)nn4c3CCC4)ccnc2c1 [NCGC00408881-01]
2. COc1cc(C=C2C(=O)Nc3ccccc32)cc(OC)c1O [NCGC00343740-01]
3. CCOC(=O)c1c(-c2ccc(C)o2)csc1NC(=O)CSc1nnnn1-c1ccccc1.O=C(O)C(F)(F)F [NCGC00041785-02]

Result:
-2.2
-2.4
4

====

system: CIB1 and αIIb interaction (CIB1-GST : F-αIIb peptide) (Homo sapiens)
Construct: made in house; host or cells: BL-21 plus RIL cells (E. coli)
Sequence (Q99828 1-191): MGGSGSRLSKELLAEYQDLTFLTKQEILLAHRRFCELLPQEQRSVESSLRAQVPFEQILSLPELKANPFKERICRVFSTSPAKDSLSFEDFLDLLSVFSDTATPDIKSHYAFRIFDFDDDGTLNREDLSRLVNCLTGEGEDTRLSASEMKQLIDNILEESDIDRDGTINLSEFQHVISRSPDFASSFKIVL
experiment-description: FP assay, 1536-well qHTS format (primary and confirmatory screen)
Format: binding
condition-set: qHTS primary screen hits, Table S2; negative = inhibition
property-name: Efficacy (%)
One number for each entry, in %.

• Nc1cccc2c1C(=O)N(C1CCC(=O)NC1=O)C2=O (stereo not shown) = -43
• O=C(O)C(F)(F)F.O=S(=O)(Nc1ccc(C2CCNCC2)cc1)c1ccc(NCc2ccc(Br)cc2O)cc1 = -31
• Cc1c(C)c2c(c(C)c1OC(=O)CCC(=O)OCCO)CC[C@@](C)(CCC[C@H](C)CCC[C@H](C)CCCC(C)C)O2 = -36

// next entry
Query: Give its Efficacy (%) value. Item: CC(=O)Oc1cccc2c1C(=O)c1c(OC(C)=O)cc(C(=O)O)cc1C2=O
Result: -39

====

system: CIB1 and αIIb interaction (CIB1-GST : F-αIIb peptide) (Homo sapiens)
Construct: made in house; host or cells: BL-21 plus RIL cells (E. coli)
experiment-description: FP assay, 1536-well qHTS format (primary and confirmatory screen)
Format: binding
condition-set: confirmatory screen, qHTS curve class; negative sign = inhibitory curve
property-name: CONFIRMATORY SCREEN Curve Class
One number for each entry.

- COC(=O)c1ccc2c(c1)S(=O)(=O)N=C2Sc1cc(C)ccc1C: -1.2
- O=C(Nc1nc(-c2ccccc2)cs1)c1ccncc1NS(=O)(=O)c1ccc2ccccc2c1.O=C(O)C(F)(F)F: -1.4
- Cc1cc(=O)oc2cc(SC3=NS(=O)(=O)c4ccccc43)ccc12: -1.4

Query: Quick one: CONFIRMATORY SCREEN Curve Class for CN(C)[C@H]1CCN(c2cccc(Nc3nn4c(=O)c5ccccc5nc4s3)c2)C1.O=C(O)C(F)(F)F ?
Result: -2.4

====

system: CIB1 and αIIb interaction (CIB1-GST : F-αIIb peptide) (Homo sapiens)
Construct: made in house; host or cells: BL-21 plus RIL cells (E. coli)
experiment-description: FP assay, 1536-well qHTS format (primary and confirmatory screen)
Type: binding
condition-set: qHTS FP screen hits, Table S2; read-out: IC50
pIC50: −log10 of the molar value.
Outcome: rule met for pIC50 of at least 5; rule not met for anything lower.

• COc1ccc2c(c[n+](C)c3c4cc5c(cc4ccc23)OCO5)c1OC [NCGC00015225-07] = rule not met

Query: Reported pIC50 reaches at least 5 for COc1ccccc1C(=O)c1no[n+]([O-])c1C(=O)c1ccccc1OC.O=C(O)C(F)(F)F [NCGC00351170-01] ?
Result: rule met

Query: Next compound: O=c1[nH]c(=O)c2nc3ccccc3nc2[nH]1 [NCGC00015021-05]
Result: rule not met

Query: One more compound: O=C(O)C(F)(F)F.c1ccc(-n2ccc(-c3nnc4n3CCCCC4)c2)cc1 [NCGC00249645-01]
Result: rule not met

Query: Do the same for CN1CCN(c2cccc(Nc3nn4c(=O)c5ccc(Br)cc5nc4s3)c2)CC1.Cl [NCGC00187814-01] please
Result: rule not met

Query: What do you get for O=C(O)c1csc(-n2nc(-c3ccc(F)c(F)c3)c3cccnc32)n1 [NCGC00356667-01] ?
Result: rule met

Query: # iterate: COC(=O)C12C(=O)C(C)(O)C(=O)C1(C)C(C)=CC1C34CCC(OC3=O)C(C)(CO)C4CCC12C (centres unmarked) [NCGC00380147-01]
Result: rule not met

====

system: CIB1 and αIIb interaction (GST-CIB1 : F-αIIb peptide) (Homo sapiens, UniProt Q99828)
Construct: made in house; host or cells: BL-21 plus RIL cells (E. coli)
experiment-description: FP assay, 384-well format (screen)
Assay type: binding
condition-set: F-αIIb peptide; read-out: 384-well SCREEN IC50
Kindly supply the reported IC50 values for the records listed here.

• COc1ccccc1S(=O)(=O)Nc1cnccc1C(=O)Nc1nc(-c2ccccc2)cs1.O=C(O)C(F)(F)F = 7.1 µM
• N#Cc1cnc(NS(=O)(=O)c2ccc(NC(=O)Cc3ccc(F)c(Cl)c3)cc2)s1.O=C(O)C(F)(F)F = 2.2 µM
• Cc1ccc(S(=O)(=O)Nc2cc([N+](=O)[O-])ccc2C(=O)Nc2nc(-c3ccccc3)cs2)cc1.O=C(O)C(F)(F)F = > 120 µM
• O=[N+]([O-])c1cnc(Sc2nnc(O)n2-c2ccc3c(c2)OCCO3)s1 = 2.2 µM
• O=c1sc2ccccc2c(O)c1C1CC(c2ccc(-c3ccc(Br)cc3)cc2)Cc2ccccc21 (stereo not shown) = > 120 µM
• S=C(SSC(=S)N1CCCCC1)N1CCCCC1 [NCGC00181776-02, dipentamethylenethiuram disulfide] = 6.3 µM

// switching to the query compound
Query: What does the data say about its IC50? Entry: CCN(CC)C(=S)SSC(=S)N(CC)CC [NCGC00016000-13, disulfiram, reference compound]
Result: 1.6 µM

====

system: GST-CIB1 : F-scrambled peptide (Homo sapiens)
Construct: made in house; host or cells: BL-21 plus RIL cells (E. coli)
experiment-description: FP scrambled-peptide counter screen, 1536-well format
Type: binding
condition-set: counterscreen
Assign COUNTERSCREEN Efficacy (%) to each entry below.
# answer = value followed by unit

For every item in the list below, what is its measured COUNTERSCREEN Efficacy (%)?
1. CS(=O)(=O)c1ccc(C(=O)OCC(=O)N2CCC(Cc3ccccc3)CC2)cc1[N+](=O)[O-]
2. CC(C)(C)OC(=O)CC(=O)NNC(=O)c1nc2ccccc2[nH]1
3. O=C(O)C(F)(F)F.O=C(O)c1csc(-n2nc(-c3ccc(F)c(F)c3)c3cccc(O)c32)n1
4. COc1ccc2c(=O)n3nc(Nc4cccc(N5CCN(C)CC5)c4)sc3nc2c1.Cl

Result:
1. -22%
2. -21%
3. 0%
4. -16%

====

system: CIB1 and αIIb interaction (CIB1-GST : F-αIIb peptide) (Homo sapiens, UniProt Q99828)
Construct: made in house; host or cells: BL-21 plus RIL cells (E. coli)
experiment-description: FP assay, 1536-well qHTS format (primary and confirmatory screen)
Type: binding
condition-set: qHTS primary screen hits, Table S2; negative = inhibition
property-name: Efficacy (%)
Numbers only, in %.

Check out these entries, answers already filled in.
• CSc1cc2c(s1)c1cnn(Cc3cccc(N)c3)c(=O)c1n2C.O=C(O)C(F)(F)F = -65
• N#Cc1ccc(S(=O)(=O)Nc2cnccc2C(=O)Nc2nc(-c3ccccc3)cs2)cc1.O=C(O)C(F)(F)F = -38
• O=C(O)C(F)(F)F.OCc1ccc(-c2ccc3ncnc(NCCc4c[nH]cn4)c3c2)o1 = -40
• O=C(Nc1nc(-c2ccccc2)cs1)c1ccncc1NS(=O)(=O)c1ccc(F)c(F)c1.O=C(O)C(F)(F)F = -34

Report Efficacy (%) for every entry below.
1. CC(C)=CCOc1ccc(/C=C/C(=O)c2ccc(OCC=C(C)C)cc2OCC(=O)O)cc1
2. O=c1[nH]c2cc([N+](=O)[O-])c([N+](=O)[O-])cc2[nH]c1=O
3. CCCC(=O)OC[C@@H](OC(=O)CCC)[C@@H](OC(=O)CCC)[C@H](Cn1c2nc(=O)[nH]c(=O)c-2nc2cc(C)c(C)cc21)OC(=O)CCC

Result:
[-94, -48, -140]

Dear reader, for each entry below, please note its Efficacy (%).
1. Oc1ccc2ccccc2c1SSc1c(O)ccc2ccccc12 [NCGC00186047-02, IPA-3, reference compound]
2. Cl.Nc1ccc2cc3ccc(N)cc3nc2c1.Nc1ccc2cc3ccc(N)cc3nc2c1.O=S(=O)(O)O
3. Cc1ccc(S(=O)(=O)Nc2cc(S(=O)(=O)c3ccc(C)cc3)c(O)c3cccnc23)cc1
4. OCCCc1ccccc1
5. Cc1cc(Nc2c(Nc3nnc(-c4ccncc4)s3)c(=O)c2=O)ccc1Cl.O=C(O)C(F)(F)F
6. CCOC(=O)c1c(-c2ccc(C)o2)csc1NC(=O)CSc1nnnn1-c1ccccc1.O=C(O)C(F)(F)F
7. CC(=O)[O][Hg][c]1ccccc1

Result:
[-21, -130, -29, -35, -35, -58, -59]

Query: State its Efficacy (%) on CIB1 and αIIb interaction (CIB1-GST : F-αIIb peptide) (Homo sapiens, UniProt Q99828): NS(=O)(=O)c1cccc2c1c([N+](=O)[O-])cc1nc(O)c([O-])nc12.[Na+]
Result: -46
